# assay.details: LNCaP cell loss by flow event count, confirmation, cytotoxicity control for prostate differentiation activator project, single point (AID 1076);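 note: counts scatter-gated live cells after medium removal discards detached dead cells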
# reported.conditions: flow cytometry event count, 4 d, at 100 µM, hits give low values
Criterion: cell event count strictly less than 200. Met: fulfilled. Not met: not fulfilled.

1) O=C(NCCCN1CCN(c2cccc(Cl)c2)CC1)c1cccc(N2CCCC2=O)c1 = not fulfilled
2) Cc1onc(-c2ccccc2Cl)c1C(=O)N(C)C1CCCCC1 = fulfilled
3) O=C(NC1CCCC1)C1CCN(S(=O)(=O)c2cccc3cccnc23)CC1 = not fulfilled
4) CCOc1ccccc1NC(=O)CCC(=O)O = not fulfilled
5) CCc1nnc(NC(=O)CSc2nc3ccccc3s2)s1 = not fulfilled
6) O=C(c1ccc(COCC(F)(F)F)o1)N1CCCCCC1 = fulfilled
7) COc1ccc(-c2oc3ncn(CCN4CCOCC4)c(=N)c3c2-c2ccc(OC)cc2)cc1 = fulfilled
8) CCN(CCNC(=O)C1CCCN(Cc2nc(-c3ccc(OC)cc3)oc2C)C1)c1ccccc1 (stereo unspecified) = fulfilled
9) Cn1c(C(=O)NCCCN2CCN(c3ccccc3F)CC2)cc2c(=O)[nH]c3ccccc3c21 = fulfilled
10) Cc1ccc(NC(=O)N2CCCN(Cc3ccc(F)cc3)C2)cc1C = fulfilled
11) Cc1oc(-c2ccc(Cl)cc2)nc1CN1CCCC(C(=O)NCCCN2CCOCC2)C1 (stereo unspecified) = fulfilled

###

# assay.details: LNCaP cell loss by flow event count, confirmation, cytotoxicity control for prostate differentiation activator project, single point (AID 1076);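 note: counts scatter-gated live cells after medium removal discards detached dead cells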
# reported.conditions: flow cytometry event count, 4 d, at 100 µM, hits give low values
The source made the active and inactive calls.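 The calls were made as follows: active = cell event count below 40, meaning activity score above 60 where score is 100 minus count; inactive = the rest.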
cell event count values by entry
metric.name: cell event count

1. CCCN(CCC)CCNC(=O)C1CCN(Cc2nc(-c3ccc(Cl)cc3)oc2C)CC1 = 55 (inactive)
2. c1ccc(N2CCN(c3nnc(Cc4cccnc4)c4ccccc34)CC2)nc1 = 40 (inactive)
3. Cc1oc(-c2cccc(Cl)c2)nc1CN1CCC(C(=O)NCc2cccnc2)CC1 = 38 (inactive)
4. Cc1ccc(C)c(N2CCN(CCCNC(=O)Cn3cc4c(n3)CCCCC4)CC2)c1 = 3 (active)
5. CN1CCN(c2oc(COc3ccc(-c4ccccc4)cc3)nc2C#N)CC1 = 5 (inactive)
6. CC(C)(O)c1cn(-c2nonc2N)nn1 = 249 (inactive)
7. Cc1oc(-c2ccc(Cl)cc2)nc1CN1CCC(C(=O)N2CCN(Cc3ccccc3)CC2)CC1 = 3 (inactive)
8. CCn1c(=O)cc(SCC(=O)NCCN2CCN(Cc3ccccc3)CC2)c2ccccc21 = 228 (inactive)
9. Cn1c(C(=O)NCCC2=CCCCC2)cc2c(=O)n3ccccc3nc21 = 191 (inactive)
10. Cc1oc(-c2ccc(Cl)cc2)nc1CN1CCC(C(=O)NCc2ccco2)CC1 = 178 (inactive)
11. O=C1CCCc2c1cc(C(=O)NC1CCSC1=O)c(=O)n2-c1ccccc1 (configuration not stated) = 253 (inactive)
12. CCn1c(=O)cc(OCC(=O)NCCCN2CCN(c3cccc(Cl)c3)CC2)c2ccccc21 = 20 (inactive)
13. COc1ccc(Cc2n[nH]c(=O)c3ccccc23)cc1OC = 207 (inactive)
14. CCOC(=O)N1CCN(C(=O)Cc2ccc(-n3c(=O)[nH]c4ccccc4c3=O)cc2)CC1 = 302 (inactive)
15. Cc1ccc(C(=O)/C=C/Nc2cccc(O)c2)cc1 = 17 (inactive)
16. Cc1ccccc1-c1nc(CN2CCC(C(=O)N3CCC(C(N)=O)CC3)CC2)c(C)o1 = 150 (inactive)
17. Cc1ccccc1-c1nc(CN2CCC(C(=O)NCCC3=CCCCC3)CC2)c(C)o1 = 11 (inactive)
18. Cc1cccc(-c2nc(CN3CCCC(C(=O)NC4CCC(C)CC4)C3)c(C)o2)c1 (configuration not stated) = 5 (inactive)
19. O=C(NCCCN1CCN(c2ccccc2F)CC1)C1CCC(=O)N1C1CCCC1 (configuration not stated) = 60 (inactive)
20. Cc1cc(NC(=O)CSc2nnc(Cn3c(=O)sc4ccccc43)n2-c2ccccc2C)no1 = 200 (inactive)
21. Cc1ccc(Cn2ccc(NC(=O)c3cc(-c4ccc(Br)cc4)on3)n2)cc1 = 257 (inactive)
22. Cc1ccccc1-c1nc(CN2CCC(C(=O)O)CC2)c(C)o1 = 217 (inactive)
